Reference source for all entries: ChEMBL document CHEMBL2346524

# ASSAYED_SYSTEM: Epidermal growth factor receptor (Homo sapiens, UniProt P00533)
# Sequence (P00533 whole entry, the tested form may be a part): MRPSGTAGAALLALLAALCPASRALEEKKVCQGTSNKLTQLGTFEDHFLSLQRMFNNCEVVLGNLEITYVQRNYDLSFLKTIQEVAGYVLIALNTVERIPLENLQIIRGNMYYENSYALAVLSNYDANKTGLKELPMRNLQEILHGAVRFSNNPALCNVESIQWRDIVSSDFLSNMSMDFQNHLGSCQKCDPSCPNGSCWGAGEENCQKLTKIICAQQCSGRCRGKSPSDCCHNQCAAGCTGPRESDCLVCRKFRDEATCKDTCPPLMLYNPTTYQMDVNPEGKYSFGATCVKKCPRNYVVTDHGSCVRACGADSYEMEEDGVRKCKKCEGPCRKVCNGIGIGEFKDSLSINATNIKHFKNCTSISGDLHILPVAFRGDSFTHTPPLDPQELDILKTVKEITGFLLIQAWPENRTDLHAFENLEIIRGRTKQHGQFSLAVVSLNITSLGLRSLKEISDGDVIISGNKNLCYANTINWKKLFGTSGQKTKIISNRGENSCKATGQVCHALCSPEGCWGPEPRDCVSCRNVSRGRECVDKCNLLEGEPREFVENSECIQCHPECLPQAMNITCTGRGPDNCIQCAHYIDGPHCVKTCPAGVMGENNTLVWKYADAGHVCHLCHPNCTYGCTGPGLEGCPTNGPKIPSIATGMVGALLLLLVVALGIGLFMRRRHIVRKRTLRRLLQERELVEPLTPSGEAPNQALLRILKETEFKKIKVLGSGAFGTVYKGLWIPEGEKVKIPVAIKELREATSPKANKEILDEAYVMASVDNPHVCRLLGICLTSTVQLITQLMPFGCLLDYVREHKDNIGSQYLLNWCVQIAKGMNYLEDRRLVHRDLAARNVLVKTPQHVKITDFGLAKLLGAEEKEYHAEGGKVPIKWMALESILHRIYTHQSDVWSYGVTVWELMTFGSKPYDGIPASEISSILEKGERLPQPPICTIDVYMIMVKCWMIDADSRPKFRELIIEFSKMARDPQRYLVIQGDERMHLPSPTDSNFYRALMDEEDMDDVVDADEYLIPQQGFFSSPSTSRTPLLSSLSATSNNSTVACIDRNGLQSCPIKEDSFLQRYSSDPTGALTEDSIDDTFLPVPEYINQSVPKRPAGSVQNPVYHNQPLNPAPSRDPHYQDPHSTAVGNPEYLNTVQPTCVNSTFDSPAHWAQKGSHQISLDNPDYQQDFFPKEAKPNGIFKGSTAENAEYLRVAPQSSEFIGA
# EXPERIMENT: Inhibition of human wild type GST-tagged EGFR kinase domain expressed in Sf9 cells by luminescence assay
Could you please report measured IC50 for the items listed next?

For Nc1cccc(-c2c(-c3ccccc3)oc3ncnc(N[C@H](CO)c4ccccc4)c23)c1 , what is its reported IC50?
203 nM

Could you tell me which IC50 is on file for CC(C)CCCC(=O)Nc1cccc(-c2c(-c3ccccc3)oc3ncnc(N[C@H](CO)c4ccccc4)c23)c1 ?
> 25000 nM

Look at this compound and give its reported IC50. CN(C)CC(=O)Nc1cccc(-c2c(-c3ccccc3)oc3ncnc(N[C@H](CO)c4ccccc4)c23)c1
48 nM

Entry under review: O=[N+]([O-])c1cccc(-c2c(-c3ccccc3)oc3ncnc(N[C@H](CO)c4ccccc4)c23)c1 . Reported IC50?
820 nM
